test system: RPMI-8866 (Chronic Myelogenous Leukemia); assay: Bliss excess, mean over the matrix (fraction); higher = more synergy;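 also: after 72 h of two-drug dosing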
// reported Bliss excess per item
Give the figure by itself; no unit, no explanation.

Use the examples below as a reference point.
Compound	Bliss excess
Cc1c2c(nn1C)CSCc1cc(n(C)n1)CSc1cc(c3ccccc3c1)OCCCc1c(C(=O)O)n(C)c3c-2c(Cl)ccc13 [AZD5991] + Cn1cnc2c(F)c(Nc3ccc(Br)cc3Cl)c(C(=O)NOCCO)cc21 [Selumetinib] (first compound max 1 µM, 7x7, partner max 3 µM)	-0.0462
CC(=O)c1c(C)c2cnc(Nc3ccc(N4CCNCC4)cn3)nc2n(C2CCCC2)c1=O [Palbociclib] + Cn1cnc2c(F)c(Nc3ccc(Br)cc3Cl)c(C(=O)NOCCO)cc21 [Selumetinib] (first compound max 10 µM, 7x7, partner max 10 µM)	0.0259
Cc1cc2ncnn2cc1Nc1ncc2c(n1)n(C1CCOCC1)c(=O)n2C [AZD7648] + C[C@@H]1COCCN1C2=NC(=NC(=C2)C3(CC3)[S@](=N)(=O)C)C4=C5C=CNC5=NC=C4 [AZD6738] (first compound max 10 µM, 7x7, partner max 10 µM)	-0.028

In: Please report Bliss excess for the following compound: CC1(C)CCC(CN2CCN(c3ccc(C(=O)NS(=O)(=O)c4ccc(NCC5CCOCC5)c([N+](=O)[O-])c4)c(Oc4cnc5[nH]ccc5c4)c3)CC2)=C(c2ccc(Cl)cc2)C1 [Venetoclax] + Cc1cc2ncnn2cc1Nc1ncc2c(n1)n(C1CCOCC1)c(=O)n2C [AZD7648] (first compound max 1 µM, 7x7, partner max 10 µM)
Out: -0.026

----------
tested on: RT4 (Bladder Carcinoma); test: combination Emax (second highest fraction inhibited in the dose matrix, 72 h); higher = more inhibition; extreme values may be limits of the assay
Property Name: combination Emax
Provide a numeric answer; units are not to be included.

The examples below pair each entry with its known result.
Compound	System Name	combination Emax
Cc1c2c(nn1C)CSCc1cc(n(C)n1)CSc1cc(c3ccccc3c1)OCCCc1c(C(=O)O)n(C)c3c-2c(Cl)ccc13 [AZD5991] + CN(C)CCCOc1ccc(-c2ccc3ncc4c(c3c2)n(C2CCOCC2)c(=O)n4C)cn1 [AZD0156] (first compound max 1 µM, 7x7, partner max 1 µM)	RT4 (Bladder Carcinoma)	0.289
CN(C)CCCOc1ccc(-c2ccc3ncc4c(c3c2)n(C2CCOCC2)c(=O)n4C)cn1 [AZD0156] + C[C@@H]1COCCN1C2=NC(=NC(=C2)C3(CC3)[S@](=N)(=O)C)C4=C5C=CNC5=NC=C4 [AZD6738] (first compound max 1 µM, 7x7, partner max 10 µM)	RT4 (Bladder Carcinoma)	0.411
NC1(C(=O)N[C@@H](CCO)c2ccc(Cl)cc2)CCN(c2ncnc3[nH]ccc23)CC1 [Capivasertib] + CC(=O)c1c(C)c2cnc(Nc3ccc(N4CCNCC4)cn3)nc2n(C2CCCC2)c1=O [Palbociclib] (first compound max 10 µM, 7x7, partner max 10 µM)	RT4 (Bladder Carcinoma)	0.362

In: Return reported combination Emax. Input compound: C=CCn1c(=O)c2cnc(Nc3ccc(N4CCN(C)CC4)cc3)nc2n1-c1cccc(C(C)(C)O)n1 [AZD1775] + C1CN(CCC1(C(=O)N[C@@H](CCO)C2=CC=C(C=C2)Cl)N)C3=NC=NC4=C3C=CN4 [Capivasertib] (first compound max 3 µM, partner max 3 µM)
Out: 0.712

----------
tested on: HCC-44 (Lung Adenocarcinoma); test: combination Emax (second highest fraction inhibited in the dose matrix, 72 h); higher = more inhibition; extreme values may be limits of the assay
Answer no if combination Emax is under 0.7, and yes if it is 0.7 or more.

Worked examples follow.
Compound	System Name	Class
Cn1cnc2c(F)c(Nc3ccc(Br)cc3Cl)c(C(=O)NOCCO)cc21 [Selumetinib] + C[C@@H]1COCCN1C2=NC(=NC(=C2)C3(CC3)[S@](=N)(=O)C)C4=C5C=CNC5=NC=C4 [AZD6738] (first compound max 10 µM, 7x7, partner max 10 µM)	HCC-44 (Lung Adenocarcinoma)	no
C[C@@H](c1ccc2nccn2c1)n1nnc2ncc(-c3cnn(C)c3)nc21 [Savolitinib] + Cc1c2c(nn1C)CSCc1cc(n(C)n1)CSc1cc(c3ccccc3c1)OCCCc1c(C(=O)O)n(C)c3c-2c(Cl)ccc13 [AZD5991] (first compound max 1 µM, 7x7, partner max 1 µM)	HCC-44 (Lung Adenocarcinoma)	no
O=C(c1cc(Cc2n[nH]c(=O)c3ccccc23)ccc1F)N1CCN(C(=O)C2CC2)CC1 [Olaparib] + COc1nnc2ccc(N3CCC(c4ccc(OCCN5CCN(C)C(=O)[C@H]5C)cc4)CC3)nn12 [AZD5153] (first compound max 10 µM, 7x7, partner max 1 µM)	HCC-44 (Lung Adenocarcinoma)	no
COc1nnc2ccc(N3CCC(c4ccc(OCCN5CCN(C)C(=O)[C@H]5C)cc4)CC3)nn12 [AZD5153] + C[C@@H]1COCCN1C2=NC(=NC(=C2)C3(CC3)[S@](=N)(=O)C)C4=C5C=CNC5=NC=C4 [AZD6738] (first compound max 1 µM, 7x7, partner max 10 µM)	HCC-44 (Lung Adenocarcinoma)	yes

# input for lookup
In: Given the entry NC1(C(=O)N[C@@H](CCO)c2ccc(Cl)cc2)CCN(c2ncnc3[nH]ccc23)CC1 [Capivasertib] + Cn1cnc2c(F)c(Nc3ccc(Br)cc3Cl)c(C(=O)NOCCO)cc21 [Selumetinib] (first compound max 10 µM, 7x7, partner max 10 µM) , answer whether its combination Emax meets or surpasses 0.7.
Out: yes

----------
Below is a list of entries, each paired with its recorded combination Emax value.
test system: OV-90 (Ovarian Carcinoma); assay: combination Emax (second highest fraction inhibited in the dose matrix, 72 h); higher = more inhibition; extreme values may be limits of the assay

Take a look at these entries with their results.
Compound	Property Name	Experimental Result
C[C@@H]1COCCN1c1cc(C2([S@](C)(=N)=O)CC2)nc(-c2ccnc3[nH]ccc23)n1 [AZD6738] + O=C(c1cc(Cc2n[nH]c(=O)c3ccccc23)ccc1F)N1CCN(C(=O)C2CC2)CC1 [Olaparib] (first compound max 10 µM, 7x7, partner max 10 µM)	combination Emax	0.537
NC1(C(=O)N[C@@H](CCO)c2ccc(Cl)cc2)CCN(c2ncnc3[nH]ccc23)CC1 [Capivasertib] + CC(C)n1c(=O)n(C)c2cnc3cc(F)c(-c4ccc(OCCCN5CCCCC5)nc4)cc3c21 [AZD1390] (first compound max 10 µM, 7x7, partner max 0.3 µM)	combination Emax	0.284
CN(CCO)CC[C@H](CSc1ccccc1)Nc1ccc(S(=O)(=O)NC(=O)c2ccc(N3CCC([C@@H](O)c4ccccc4-c4ccc(Cl)cc4)CC3)cc2)cc1S(=O)(=O)C(F)(F)F [AZD4320] + Nc1ccn([C@@H]2O[C@H](CO)[C@@H](O)C2(F)F)c(=O)n1 [Gemcitabine] (first compound max 1 µM, 7x7, partner max 0.3 µM)	combination Emax	0.88
CN(CCO)CC[C@H](CSc1ccccc1)Nc1ccc(S(=O)(=O)NC(=O)c2ccc(N3CCC([C@@H](O)c4ccccc4-c4ccc(Cl)cc4)CC3)cc2)cc1S(=O)(=O)C(F)(F)F [AZD4320] + C[C@@H]1COCCN1C2=NC(=NC(=C2)C3(CC3)[S@](=N)(=O)C)C4=C5C=CNC5=NC=C4 [AZD6738] (first compound max 1 µM, 7x7, partner max 10 µM)	combination Emax	0.917
N#Cc1cnc(Nc2cc(NC[C@H]3CNCCO3)c(C(F)(F)F)cn2)cn1 [SRA737] + Nc1ccn([C@@H]2O[C@H](CO)[C@@H](O)C2(F)F)c(=O)n1 [Gemcitabine] (first compound max 10 µM, 7x7, partner max 0.3 µM)	combination Emax	0.609
NC1(C(=O)N[C@@H](CCO)c2ccc(Cl)cc2)CCN(c2ncnc3[nH]ccc23)CC1 [Capivasertib] + CC(=O)c1c(C)c2cnc(Nc3ccc(N4CCNCC4)cn3)nc2n(C2CCCC2)c1=O [Palbociclib] (first compound max 10 µM, 7x7, partner max 10 µM)	combination Emax	0.305

In: Provide measured combination Emax value, entry: CC(=O)c1c(C)c2cnc(Nc3ccc(N4CCNCC4)cn3)nc2n(C2CCCC2)c1=O [Palbociclib] + Cc1c2c(nn1C)CSCc1cc(n(C)n1)CSc1cc(c3ccccc3c1)OCCCc1c(C(=O)O)n(C)c3c-2c(Cl)ccc13 [AZD5991] (first compound max 10 µM, 7x7, partner max 1 µM)
Out: 0.158

In: Consider the compound Cc1c2c(nn1C)CSCc1cc(n(C)n1)CSc1cc(c3ccccc3c1)OCCCc1c(C(=O)O)n(C)c3c-2c(Cl)ccc13 [AZD5991] + Cc1cc2ncnn2cc1Nc1ncc2c(n1)n(C1CCOCC1)c(=O)n2C [AZD7648] (first compound max 1 µM, 7x7, partner max 10 µM) . State its measured combination Emax.
Out: 0.257

In: For Cn1cnc2c(F)c(Nc3ccc(Br)cc3Cl)c(C(=O)NOCCO)cc21 [Selumetinib] + C=CCn1c(=O)c2cnc(Nc3ccc(N4CCN(C)CC4)cc3)nc2n1-c1cccc(C(C)(C)O)n1 [AZD1775] (first compound max 10 µM, partner max 1 µM) , write its combination Emax.
Out: 0.628

In: Tell me its combination Emax given Cn1cnc2c(F)c(Nc3ccc(Br)cc3Cl)c(C(=O)NOCCO)cc21 [Selumetinib] + C[C@@H]1COCCN1C2=NC(=NC(=C2)C3(CC3)[S@](=N)(=O)C)C4=C5C=CNC5=NC=C4 [AZD6738] (first compound max 10 µM, 7x7, partner max 10 µM) as the entry.
Out: 0.688

In: Identify measured combination Emax associated with Cc1cc2ncnn2cc1Nc1ncc2c(n1)n(C1CCOCC1)c(=O)n2C [AZD7648] + COc1cc([C@@H]2c3cc4c(cc3[C@@H](O[C@@H]3O[C@@H]5CO[C@@H](C)O[C@H]5[C@H](O)[C@H]3O)[C@H]3COC(=O)[C@H]23)OCO4)cc(OC)c1O [Etoposide] (first compound max 10 µM, 7x7, partner max 10 µM)
Out: 0.399

In: Provide measured combination Emax value, entry: CC1(C)CCC(CN2CCN(c3ccc(C(=O)NS(=O)(=O)c4ccc(NCC5CCOCC5)c([N+](=O)[O-])c4)c(Oc4cnc5[nH]ccc5c4)c3)CC2)=C(c2ccc(Cl)cc2)C1 [Venetoclax] + COc1cc(Nc2ncc3c(n2)-c2ccc(Cl)cc2C(c2c(F)cccc2OC)=NC3)ccc1C(=O)O [Alisertib] (first compound max 1 µM, 7x7, partner max 10 µM)
Out: 0.248

In: Respond only with combination Emax recorded for COc1cc2c(cc1OCCCCCOc1cc3c(cc1OC)C(=O)N1C=C(C)C[C@H]1C=N3)N=C[C@@H]1CC(C)=CN1C2=O [SG3199] + O=C(c1cc(Cc2n[nH]c(=O)c3ccccc23)ccc1F)N1CCN(C(=O)C2CC2)CC1 [Olaparib] (first compound max 0.001 µM, 7x7, partner max 10 µM)
Out: 0.098

Values were extracted from the supplement of paper PMC11061612.
